Assay: Half life in Sprague-Dawley rat at 1 mg/kg, iv by LC-MS/MS analysis
Assay type: ADME, organism-based
Conditions: in vivo
measured quantity: half-life (h)

molecule=O=[N+]([O-])c1cn2c(n1)OC[C@H](Oc1ccc(OC(F)(F)F)cc1)C2 measured_quantity=half-life reading=3
molecule=O=[N+]([O-])c1cn2c(n1)OC[C@H](Oc1ccc(C(F)(F)F)cn1)C2 measured_quantity=half-life reading=2.7

* * *

Test system: Liver
Experiment: Metabolic stability in human liver microsomes assessed as parent compound remaining at 0.5 uM after 0.5 hr
Assay type: ADME, microsome
Each record here notes measured Stability.
measured quantity: Stability (%)

molecule=O=[N+]([O-])c1cn2c(n1)OC[C@@H](OCc1csc(-c3ccc(OC(F)(F)F)cc3)n1)C2 assay_target=Liver measured_quantity=Stability unit_abbreviation=% reading=78
molecule=O=[N+]([O-])c1cn2c(n1)OC[C@@H](OCc1cccc(-c3ccc(OC(F)(F)F)cc3)n1)C2 assay_target=Liver measured_quantity=Stability unit_abbreviation=% reading=75
molecule=O=[N+]([O-])c1cn2c(n1)OC[C@@H](OCc1ccc(-c3ccc(OC(F)(F)F)cc3F)cn1)C2 assay_target=Liver measured_quantity=Stability unit_abbreviation=% reading=88
molecule=O=[N+]([O-])c1cn2c(n1)OC[C@H](OCc1ccc(-c3ccc(OC(F)(F)F)cc3F)cn1)C2 assay_target=Liver measured_quantity=Stability unit_abbreviation=% reading=75
molecule=O=[N+]([O-])c1cn2c(n1)OC[C@H](OCc1cccc(-c3ccc(F)cc3)n1)C2 assay_target=Liver measured_quantity=Stability unit_abbreviation=% reading=79

* * *

Test: Cmax in Swiss albino mouse at 40 mg/kg, po by LC-MS/MS analysis
Format: ADME, organism-based
Design: dose 40 mg/kg, route oral
Conditions: Swiss albino, in vivo
measured quantity: Cmax

molecule=O=[N+]([O-])c1cn2c(n1)OC[C@H](Oc1ccc(C(F)(F)F)cn1)C2 reading="96 µg/mL"

* * *

Assay: Half life in Swiss albino mouse at 1 mg/kg, iv by LC-MS/MS analysis
Assay type: ADME, organism-based
Conditions: Swiss albino, in vivo
Each record here notes measured half-life.
measured quantity: half-life (h)

molecule="O=[N+]([O-])c1cn2c(n1)OCC(COc1ccc(-c3ccc(F)cc3)nc1)C2 (configuration not stated)" unit_abbreviation=h reading=2.7
molecule="O=[N+]([O-])c1cn2c(n1)OCC(COc1ccc(-c3ccc(OC(F)(F)F)cc3)nc1)C2 (configuration not stated)" unit_abbreviation=h reading=20

* * *

Each record here notes measured clearance.
Experiment: Clearance in Swiss albino mouse at 1 mg/kg, iv by LC-MS/MS analysis
Type: ADME, organism-based
Conditions: in vivo
measured quantity: clearance (mL/min/kg)

compound="O=[N+]([O-])c1cn2c(n1)OCC(COc1ccc(-c3ccc(F)cc3)nc1)C2 (stereo not drawn)" measured_quantity=clearance reading=5.2
compound="O=[N+]([O-])c1cn2c(n1)OCC(COc1ccc(OC(F)(F)F)cc1)C2 (stereo not drawn)" measured_quantity=clearance reading=13
compound="O=[N+]([O-])c1cn2c(n1)OCC(COc1ccc(-c3ccc(OC(F)(F)F)cc3)nc1)C2 (stereo not drawn)" measured_quantity=clearance reading=1.2

* * *

Experiment: Initial concentration in Swiss albino mouse at 1 mg/kg, iv by LC-MS/MS analysis
Format: ADME, organism-based
Details: in vivo
measured quantity: C0 (ng/mL)

molecule="O=[N+]([O-])c1cn2c(n1)OCC(COc1ccc(OC(F)(F)F)cc1)C2 (stereo not drawn)" unit_abbreviation=ng/mL reading=340
molecule="O=[N+]([O-])c1cn2c(n1)OCC(COc1ccc(-c3ccc(OC(F)(F)F)cc3)nc1)C2 (stereo not drawn)" unit_abbreviation=ng/mL reading=750
molecule="O=[N+]([O-])c1cn2c(n1)OCC(COc1ccc(-c3ccc(F)cc3)nc1)C2 (stereo not drawn)" unit_abbreviation=ng/mL reading=440

* * *

Each record here notes measured Vd.
Assay: Volume of distribution at steady state in Swiss albino mouse at 1 mg/kg, iv by LC-MS/MS analysis
Assay type: ADME, organism-based
Conditions: in vivo, read-out: Vdss
measured quantity: Vd (L/kg)

compound="O=[N+]([O-])c1cn2c(n1)OCC(COc1ccc(-c3ccc(F)cc3)nc1)C2 (stereo not drawn)" measured_quantity=Vd unit_abbreviation=L/kg reading=1.8
compound="O=[N+]([O-])c1cn2c(n1)OCC(COc1ccc(OC(F)(F)F)cc1)C2 (stereo not drawn)" measured_quantity=Vd unit_abbreviation=L/kg reading=2.5
compound="O=[N+]([O-])c1cn2c(n1)OCC(COc1ccc(-c3ccc(OC(F)(F)F)cc3)nc1)C2 (stereo not drawn)" measured_quantity=Vd unit_abbreviation=L/kg reading=1.9

* * *

Assay: Metabolic stability in hamster liver microsomes assessed as parent compound remaining at 1 uM after 1 hr
Format: ADME, microsome
Details: read-out: Stability
// classify: if (remaining at 1 h, 1 µM < 10%) true else false

molecule=O=[N+]([O-])c1cn2c(n1)OC[C@H](OCc1cccnc1-c1ccc(OC(F)(F)F)cc1)C2 label_value=true
molecule=O=[N+]([O-])c1cn2c(n1)OC[C@H](OCc1ccc(-c3ccc(OC(F)F)cc3)cn1)C2 label_value=false
molecule=O=[N+]([O-])c1cn2c(n1)OC[C@H](OCc1ccc(-c3ccc(OC(F)(F)F)cc3F)nc1)C2 label_value=true
molecule=O=[N+]([O-])c1cn2c(n1)OC[C@H](OCc1ccc(-c3ccc(F)cc3F)cn1)C2 label_value=true

* * *

System: Liver
Assay: Metabolic stability in CD-1 mouse liver microsomes assessed as parent compound remaining at 1 uM after 1 hr
Assay type: ADME, microsome
Each record here notes measured Stability.
measured quantity: Stability (%)

molecule=O=[N+]([O-])c1cn2c(n1)OC[C@H](OCc1ccc(-c3ccc(OC(F)F)cc3)cn1)C2 assay_target=Liver unit_abbreviation=% reading=56
molecule=O=[N+]([O-])c1cn2c(n1)OC[C@H](Oc1ccc(C(F)(F)F)cn1)C2 assay_target=Liver unit_abbreviation=% reading=92
molecule=O=[N+]([O-])c1cn2c(n1)OC[C@H](Oc1ccc(-c3ccc(F)cc3)nc1)C2 assay_target=Liver unit_abbreviation=% reading=59
molecule=O=[N+]([O-])c1cn2c(n1)OC[C@H](OCc1ccc(-c3ccc(F)cc3F)cn1)C2 assay_target=Liver unit_abbreviation=% reading=57

* * *

Test system: Liver
Test: Metabolic stability in CD-1 mouse liver microsomes assessed as parent compound remaining at 1 uM after 1 hr
Assay type: ADME, microsome
measured quantity: Stability (%)

compound=O=[N+]([O-])c1cn2c(n1)OC[C@H](OCc1cccnc1-c1ccc(OC(F)(F)F)cc1)C2 unit_abbreviation=% reading=44
compound=O=[N+]([O-])c1cn2c(n1)OC[C@H](OCc1ccc(-c3ccc(OC(F)F)cc3)nc1)C2 unit_abbreviation=% reading=56
compound=O=[N+]([O-])c1cn2c(n1)OC[C@H](Oc1ccc(-c3ccc(OC(F)(F)F)cc3)nc1)C2 unit_abbreviation=% reading=35
compound="CC1(C)Oc2nc([N+](=O)[O-])cn2CC1OCc1ccc(OC(F)(F)F)cc1 (centres undefined)" unit_abbreviation=% reading=72

* * *

Test: Metabolic stability in hamster liver microsomes assessed as parent compound remaining at 0.5 uM after 0.5 hr
Type: ADME, microsome
Conditions: read-out: Stability
measured quantity: remaining at 0.5 h, 0.5 µM

compound="O=[N+]([O-])c1cn2c(n1)OCC(COc1ccc(OC(F)(F)F)cc1)C2 (configuration not stated)" measured_quantity="remaining at 0.5 h, 0.5 µM" reading=70%
compound="O=[N+]([O-])c1cn2c(n1)OCC(COc1ccc(-c3ccc(OC(F)(F)F)cc3)nc1)C2 (configuration not stated)" measured_quantity="remaining at 0.5 h, 0.5 µM" reading=88%
compound=O=[N+]([O-])c1cn2c(n1)OC[C@@H](OCc1ccc(-c3ccc(OC(F)(F)F)cc3F)cn1)C2 measured_quantity="remaining at 0.5 h, 0.5 µM" reading=69%
compound=O=[N+]([O-])c1cn2c(n1)OC[C@@H](OCc1csc(-c3ccc(OC(F)(F)F)cc3)n1)C2 measured_quantity="remaining at 0.5 h, 0.5 µM" reading=43%
compound=O=[N+]([O-])c1cn2c(n1)OC[C@H](OCc1ccc(-c3ccc(OC(F)(F)F)cc3Cl)cn1)C2 measured_quantity="remaining at 0.5 h, 0.5 µM" reading=57%
compound=O=[N+]([O-])c1cn2c(n1)OC[C@H](OCc1ccc(-c3ccc(OC(F)(F)F)cc3)cn1)C2 measured_quantity="remaining at 0.5 h, 0.5 µM" reading=61%
compound=O=[N+]([O-])c1cn2c(n1)OC[C@H](OCc1ccc(OC(F)(F)F)cc1)C2 measured_quantity="remaining at 0.5 h, 0.5 µM" reading=31%

* * *

Tested on: Liver
Experiment: Metabolic stability in human liver microsomes assessed as parent compound remaining at 1 uM after 1 hr
Format: ADME, microsome
Decision: Stability >= 60% yields True, all other cases yield False.

molecule="O=[N+]([O-])c1cn2c(n1)OC[C@@H](OCc1ccc(OC(F)(F)F)cc1)C2 [PRETOMANID]" assay_target=Liver label_value=True
molecule=O=[N+]([O-])c1cn2c(n1)OC[C@H](OCc1ccc(-c3ccc(OC(F)(F)F)cc3)cn1)C2 assay_target=Liver label_value=False
molecule=O=[N+]([O-])c1cn2c(n1)OC[C@H](Oc1ccc(-c3ccc(F)cc3)nc1)C2 assay_target=Liver label_value=True
molecule=O=[N+]([O-])c1cn2c(n1)OC[C@H](OCc1cccnc1-c1ccc(OC(F)(F)F)cc1)C2 assay_target=Liver label_value=False
molecule=O=[N+]([O-])c1cn2c(n1)OC[C@H](OCc1ccc(-c3ccc(F)cc3F)nc1)C2 assay_target=Liver label_value=False
molecule=O=[N+]([O-])c1cn2c(n1)OC[C@H](OCc1ccc(-c3ccc(OC(F)F)cc3)nc1)C2 assay_target=Liver label_value=False
